Assay: Cytotoxicity against human HepG2 2.2.15 cells assessed as reduction in cell viability by MTS assay
Format: toxicity, cell-based
Assign CC50 to each entry below.

Illustrative cases are given below, each with its answer.
Cc1nc(N2CC[N+]3(CC2)CC[N+]2(CCNCC2)CC3)c(N)c(N2CC[N+]3(CC2)CC[N+]2(CCNCC2)CC3)n1 : > 100 µM
Cc1nc(N2CC[N+]3(CCC[N+]4(CCNCC4)CC3)CC2)c([N+](=O)[O-])c(N2CC[N+]3(CCC[N+]4(CCNCC4)CC3)CC2)n1 : > 100 µM
O=Cc1c(N2CC[N+]3(CC2)CC[N+]2(CCNCC2)CC3)nc(-c2ccccc2)nc1N1CC[N+]2(CC1)CC[N+]1(CCNCC1)CC2 : > 100 µM
Nc1c(N2CC[N+]3(CCC[N+]4(CCNCC4)CC3)CC2)ncnc1N1CC[N+]2(CCC[N+]3(CCNCC3)CC2)CC1 : > 100 µM

The compound identified as `Nc1ccn([C@@H]2CS[C@H](CO)O2)c(=O)n1` registered its CC50 at > 2 µM

---

Test: Cytotoxicity against human HepDES19 cells assessed as reduction in cell viability incubated for 72 hrs by MTS assay
Assay type: toxicity, cell-based
Settings: HepDES19 cells
Kindly supply the reported CC50 at 72 h values for the records listed here.
One number for each entry, in µM.

Nc1c(N2CCC[N+]3(CC2)CC[N+]2(CCCNCC2)CC3)ncnc1N1CCC[N+]2(CC1)CC[N+]1(CCCNCC1)CC2 (centres undefined) : 100

For every item in the list below, what is its measured CC50 at 72 h?
1. O=Cc1c(N2CC[N+]3(CC2)CC[N+]2(CCNCC2)CC3)nc(-c2ccccc2)nc1N1CC[N+]2(CC1)CC[N+]1(CCNCC1)CC2
2. O=Cc1c(O)nc(N2CC[N+]3(CCC[N+]4(CCNCC4)CC3)CC2)nc1N1CC[N+]2(CCC[N+]3(CCNCC3)CC2)CC1
3. Nc1c(N2CC[N+]3(CCC[N+]4(CCNCC4)CC3)CC2)ncnc1N1CC[N+]2(CCC[N+]3(CCNCC3)CC2)CC1
4. Cc1nc(N2CC[N+]3(CC2)CC[N+]2(CCNCC2)CC3)c(N)c(N2CC[N+]3(CC2)CC[N+]2(CCNCC2)CC3)n1
5. O=Cc1c(N2CCC[N+]3(CC2)CC[N+]2(CCCNCC2)CC3)ncnc1N1CCC[N+]2(CC1)CC[N+]1(CCCNCC1)CC2 (centres undefined)
6. Cc1nc(N2CCC[N+]3(CC2)CC[N+]2(CCCNCC2)CC3)c([N+](=O)[O-])c(N2CCC[N+]3(CC2)CC[N+]2(CCCNCC2)CC3)n1 (centres undefined)
7. O=Cc1c(N2CC[N+]3(CCC[N+]4(CCNCC4)CC3)CC2)nc(-c2ccccc2)nc1N1CC[N+]2(CCC[N+]3(CCNCC3)CC2)CC1
8. Clc1nc(N2CCC[N+]3(CC2)CC[N+]2(CCCNCC2)CC3)nc(N2CCC[N+]3(CC2)CC[N+]2(CCCNCC2)CC3)n1.[Br-].[Br-].[Br-].[Br-] (centres undefined)

86
100
100
100
100
100
88
99

---

Test system: Hepatitis B virus
Assay: Antiviral activity against Hepatitis B virus ayw1 infected in human HepG2 2.2.15 cells assessed as reduction in viral DNA replication preincubated for 3 days followed by media replacement and measured 6 days after first dose by q-PCR assay
Conditions: ayw1, HepG2 2.2.15, 144 h
Please respond with reported log10 EC90 for every item in the list.
Reminder: these figures are log10 of reported EC90, in µM before transformation.

Cc1nc(N2CC[N+]3(CCC[N+]4(CCNCC4)CC3)CC2)c([N+](=O)[O-])c(N2CC[N+]3(CCC[N+]4(CCNCC4)CC3)CC2)n1 : 1.76

List the reported log10 EC90 of each compound below.
1. Nc1ccn([C@@H]2CS[C@H](CO)O2)c(=O)n1 [LAMIVUDINE]
2. O=Cc1c(N2CC[N+]3(CC2)CC[N+]2(CCNCC2)CC3)nc(-c2ccccc2)nc1N1CC[N+]2(CC1)CC[N+]1(CCNCC1)CC2
3. Cc1nc(N2CC[N+]3(CC2)CC[N+]2(CCNCC2)CC3)c(N)c(N2CC[N+]3(CC2)CC[N+]2(CCNCC2)CC3)n1
4. Nc1c(N2CC[N+]3(CCC[N+]4(CCNCC4)CC3)CC2)ncnc1N1CC[N+]2(CCC[N+]3(CCNCC3)CC2)CC1

[-0.27, 1.42, 1.20, 1.89]

---

I'd appreciate it if you could supply selectivity ratio values for the items below.
Test: Selectivity index, ratio of CC50 for cytotoxicity against human HepG2 2.2.15 cells to EC50 for antiviral activity against Hepatitis B virus ayw1 infected in human HepG2 2.2.15 cells
Assay type: toxicity, cell-based
Conditions: read-out: Ratio CC50/EC50

# annotated cases, reported selectivity ratio shown
O=Cc1c(N2CC[N+]3(CC2)CC[N+]2(CCNCC2)CC3)nc(-c2ccccc2)nc1N1CC[N+]2(CC1)CC[N+]1(CCNCC1)CC2 : > 47
Nc1c(N2CC[N+]3(CCC[N+]4(CCNCC4)CC3)CC2)ncnc1N1CC[N+]2(CCC[N+]3(CCNCC3)CC2)CC1 : > 5
Nc1ccn([C@@H]2CS[C@H](CO)O2)c(=O)n1 : > 113

Fill in selectivity ratio for each of the 2 molecules listed.
1. Cc1nc(N2CC[N+]3(CCC[N+]4(CCNCC4)CC3)CC2)c([N+](=O)[O-])c(N2CC[N+]3(CCC[N+]4(CCNCC4)CC3)CC2)n1
2. Cc1nc(N2CC[N+]3(CC2)CC[N+]2(CCNCC2)CC3)c(N)c(N2CC[N+]3(CC2)CC[N+]2(CCNCC2)CC3)n1

1. > 15
2. > 54

---

Assay: Selectivity index, ratio of CC50 for cytotoxicity against human HepDES19 cells to EC50 for antiviral activity against Hepatitis B virus infected in human HepDES19 cells
Type: toxicity, cell-based
Details: HepDES19 cells, read-out: Ratio CC50/EC50
Kindly state selectivity ratio for each of the entries shown.
One number for each entry.

O=Cc1c(N2CCC[N+]3(CC2)CC[N+]2(CCCNCC2)CC3)nc(-c2ccccc2)nc1N1CCC[N+]2(CC1)CC[N+]1(CCCNCC1)CC2 (centres undefined) : 8.4

API: the following record is the query input.
For reference, reported selectivity ratio for `O=[N+]([O-])c1c(N2CC[N+]3(CCC[N+]4(CCNCC4)CC3)CC2)ncnc1N1CC[N+]2(CCC[N+]3(CCNCC3)CC2)CC1` stands at 11

---

Assay: Selectivity index, ratio of CC50 for cytotoxicity against human HepDES19 cells to EC50 for antiviral activity against Hepatitis B virus infected in human HepDES19 cells
Assay type: toxicity, cell-based
Conditions: HepDES19 cells, read-out: Ratio CC50/EC50
So I've got a bunch of compounds here, and I need their selectivity ratio values.

Here are 4 compounds together with their reported answers.
Nc1c(N2CCC[N+]3(CC2)CC[N+]2(CCCNCC2)CC3)ncnc1N1CCC[N+]2(CC1)CC[N+]1(CCCNCC1)CC2 (centres undefined) : 2.5
Nc1c(N2CC[N+]3(CCC[N+]4(CCNCC4)CC3)CC2)ncnc1N1CC[N+]2(CCC[N+]3(CCNCC3)CC2)CC1 : 4.5
O=Cc1c(O)nc(N2CC[N+]3(CCC[N+]4(CCNCC4)CC3)CC2)nc1N1CC[N+]2(CCC[N+]3(CCNCC3)CC2)CC1 : 100
O=Cc1c(N2CC[N+]3(CCC[N+]4(CCNCC4)CC3)CC2)nc(-c2ccccc2)nc1N1CC[N+]2(CCC[N+]3(CCNCC3)CC2)CC1 : 1.8

Take each entry in turn and give its selectivity ratio.
1. Cc1nc(N2CCC[N+]3(CC2)CC[N+]2(CCCNCC2)CC3)c([N+](=O)[O-])c(N2CCC[N+]3(CC2)CC[N+]2(CCCNCC2)CC3)n1 (centres undefined)
2. Cc1nc(N2CC[N+]3(CC2)CC[N+]2(CCNCC2)CC3)c(N)c(N2CC[N+]3(CC2)CC[N+]2(CCNCC2)CC3)n1
3. Cc1nc(N2CC[N+]3(CCC[N+]4(CCNCC4)CC3)CC2)c([N+](=O)[O-])c(N2CC[N+]3(CCC[N+]4(CCNCC4)CC3)CC2)n1
4. O=Cc1c(N2CC[N+]3(CC2)CC[N+]2(CCNCC2)CC3)nc(-c2ccccc2)nc1N1CC[N+]2(CC1)CC[N+]1(CCNCC1)CC2
5. O=[N+]([O-])c1c(N2CCC[N+]3(CC2)CC[N+]2(CCCNCC2)CC3)ncnc1N1CCC[N+]2(CC1)CC[N+]1(CCCNCC1)CC2 (centres undefined)

1. 19
2. 143
3. 15
4. 41
5. 11

---

Tested on: Hepatitis B virus
Assay: Antiviral activity against Hepatitis B virus infected in human HepDES19 cells assessed as reduction in viral DNA replication measured after 3 days by q-PCR assay
Type: functional, organism-based
Details: Hepatitis B virus, HepDES19, 72 h
Please provide measured pEC50 for the entries that follow.
One number for each entry, as −log10 of the molar value.

O=[N+]([O-])c1c(N2CCC[N+]3(CC2)CC[N+]2(CCCNCC2)CC3)ncnc1N1CCC[N+]2(CC1)CC[N+]1(CCCNCC1)CC2 (stereo unspecified) : 5.05
O=Cc1c(N2CC[N+]3(CCC[N+]4(CCNCC4)CC3)CC2)nc(-c2ccccc2)nc1N1CC[N+]2(CCC[N+]3(CCNCC3)CC2)CC1 : 4.32
O=Cc1c(N2CC[N+]3(CC2)CC[N+]2(CCNCC2)CC3)nc(-c2ccccc2)nc1N1CC[N+]2(CC1)CC[N+]1(CCNCC1)CC2 : 5.68
O=Cc1c(N2CCC[N+]3(CC2)CC[N+]2(CCCNCC2)CC3)nc(-c2ccccc2)nc1N1CCC[N+]2(CC1)CC[N+]1(CCCNCC1)CC2 (stereo unspecified) : 4.96

Turning now to a further compound:
Please fill in: pEC50 reported for `Cc1nc(N2CC[N+]3(CC2)CC[N+]2(CCNCC2)CC3)c(N)c(N2CC[N+]3(CC2)CC[N+]2(CCNCC2)CC3)n1` = 6.15
